The origin of these recorded values is paper PMC2728291.

subject-of-test: TEM-1 β-lactamase (UniProt P62593 24-286)
Sequence (P62593 24-286): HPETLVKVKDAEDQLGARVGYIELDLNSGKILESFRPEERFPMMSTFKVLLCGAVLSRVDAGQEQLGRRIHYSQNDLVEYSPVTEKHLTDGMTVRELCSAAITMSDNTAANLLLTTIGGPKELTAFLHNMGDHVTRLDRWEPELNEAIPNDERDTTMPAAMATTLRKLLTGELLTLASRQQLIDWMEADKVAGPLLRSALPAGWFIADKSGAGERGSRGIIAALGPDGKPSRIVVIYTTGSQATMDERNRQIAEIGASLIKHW
assay-remarks: enzyme inhibition assay
property: pKi
Scale: pKi equals -log10([C]), with [C] in mol/L.

# lookup: pKi of BLIP Asp49Ser mutant (natural protein) AGVMTGAKFTQIQFGMTRQQVLDIAGAENCETGGSFGDSIHCRGHAAGSYYAYATFGFTSAAADAKVDSKSQEKLLAPSAPTLTLAKFNQVTVGMTRAQVLATVGQGSCTTWSEYYPAYPSTAGVTLSLSCFDVDGYSSTGFYRGSAHLWFTDGVLQGKRQWDLV
7.80

Would you mind telling me what pKi value was observed for BLIP Glu73Tyr mutant (natural protein) AGVMTGAKFTQIQFGMTRQQVLDIAGAENCETGGSFGDSIHCRGHAAGDYYAYATFGFTSAAADAKVDSKSQYKLLAPSAPTLTLAKFNQVTVGMTRAQVLATVGQGSCTTWSEYYPAYPSTAGVTLSLSCFDVDGYSSTGFYRGSAHLWFTDGVLQGKRQWDLV ?
8.43
